System: SV-HUC-1 cell line
experiment summary: MTT cell proliferation assay
Assay type: cell-based, human
applied conditions: SV-HUC-1, 24 h exposure, MTT; read-out: IC50 (concentration that inhibited 50% of the cell proliferation)
outcome measure: IC50 (nM)

>>> df
                                   compound  observed_result
0  CCC[C@H](NC(=O)/C(C#N)=C/c1cccc(Br)n1)c1ccccc1 [Degrasyn]             2330

All figures here come from paper PMC10045593.
